Hello, the source for this data is ChEMBL document CHEMBL5291721, in case you need it.

molecular target: Cannabinoid receptor 1 (Homo sapiens, UniProt P21554); type: functional, cell-based; note: assay procedure not described here
Sequence (P21554 whole entry): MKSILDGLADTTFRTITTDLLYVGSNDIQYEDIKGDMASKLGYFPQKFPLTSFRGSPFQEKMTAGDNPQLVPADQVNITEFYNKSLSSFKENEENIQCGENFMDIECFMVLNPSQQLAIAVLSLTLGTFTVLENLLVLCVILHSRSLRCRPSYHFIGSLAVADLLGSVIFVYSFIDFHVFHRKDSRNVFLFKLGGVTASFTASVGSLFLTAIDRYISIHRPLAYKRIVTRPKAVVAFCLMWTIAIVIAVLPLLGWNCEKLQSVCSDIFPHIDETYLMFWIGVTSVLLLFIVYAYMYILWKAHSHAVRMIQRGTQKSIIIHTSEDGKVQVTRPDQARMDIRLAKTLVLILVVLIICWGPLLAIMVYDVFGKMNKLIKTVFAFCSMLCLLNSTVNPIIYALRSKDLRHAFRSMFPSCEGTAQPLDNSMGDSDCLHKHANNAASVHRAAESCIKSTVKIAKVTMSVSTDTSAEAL
# AC50 annotations

[
  {
    "molecule": "CN1C2CCCC1CC(NC(=O)c1nn(C)c3ccccc13)C2 (centres undefined) [GRANISETRON]",
    "subjectOfTest": "Cannabinoid receptor 1 (Homo sapiens, UniProt P21554)",
    "AC50": "> 30 µM"
  },
  {
    "molecule": "CCC(=O)O[C@H](CC(=O)O)C[N+](C)(C)C [LEVOCARNITINE PROPIONATE]",
    "subjectOfTest": "Cannabinoid receptor 1 (Homo sapiens, UniProt P21554)",
    "AC50": "> 30 µM"
  },
  {
    "molecule": "CN1CCCN=C1/C=C/c1cccc(O)c1 [OXANTEL]",
    "subjectOfTest": "Cannabinoid receptor 1 (Homo sapiens, UniProt P21554)",
    "AC50": "> 30 µM"
  },
  {
    "molecule": "CCOC(=O)[C@H](CCc1ccccc1)N[C@@H](C)C(=O)N1Cc2ccccc2C[C@H]1C(=O)O",
    "subjectOfTest": "Cannabinoid receptor 1 (Homo sapiens, UniProt P21554)",
    "AC50": "> 30 µM"
  },
  {
    "molecule": "CC(C)(Oc1ccc(Cl)cc1)C(=O)OCCOC(=O)c1cccnc1 [ETOFIBRATE]",
    "subjectOfTest": "Cannabinoid receptor 1 (Homo sapiens, UniProt P21554)",
    "AC50": "> 30 µM"
  },
  {
    "molecule": "COc1ccc(-n2nc(C(N)=O)c3c2C(=O)N(c2ccc(N4CCCCC4=O)cc2)CC3)cc1 [APIXABAN]",
    "subjectOfTest": "Cannabinoid receptor 1 (Homo sapiens, UniProt P21554)",
    "AC50": "> 30 µM"
  },
  {
    "molecule": "CCC[C@@]1(CCc2ccccc2)CC(O)=C([C@H](CC)c2cccc(NS(=O)(=O)c3ccc(C(F)(F)F)cn3)c2)C(=O)O1",
    "subjectOfTest": "Cannabinoid receptor 1 (Homo sapiens, UniProt P21554)",
    "AC50": "> 30 µM"
  },
  {
    "molecule": "CC(C)(C)NCC(O)COc1cccc2c1CC(O)C(O)C2 (centres undefined) [NADOLOL]",
    "subjectOfTest": "Cannabinoid receptor 1 (Homo sapiens, UniProt P21554)",
    "AC50": "> 30 µM"
  },
  {
    "molecule": "CC1=C(/C=C/C(C)=C/C=C/C(C)=C/C(=O)Oc2c(C)c(C)c3c(c2C)CCC(C)(CCCC(C)CCCC(C)CCCC(C)C)O3)C(C)(C)CCC1 (centres undefined) [TRETINOIN TOCOFERIL]",
    "subjectOfTest": "Cannabinoid receptor 1 (Homo sapiens, UniProt P21554)",
    "AC50": "> 30 µM"
  }
]

---

molecular target: Voltage-gated inwardly rectifying potassium channel KCNH2 (Homo sapiens); assay type: functional; conditions: read-out: AC50; note: assay procedure not described here
Sequence (Q12809 whole entry): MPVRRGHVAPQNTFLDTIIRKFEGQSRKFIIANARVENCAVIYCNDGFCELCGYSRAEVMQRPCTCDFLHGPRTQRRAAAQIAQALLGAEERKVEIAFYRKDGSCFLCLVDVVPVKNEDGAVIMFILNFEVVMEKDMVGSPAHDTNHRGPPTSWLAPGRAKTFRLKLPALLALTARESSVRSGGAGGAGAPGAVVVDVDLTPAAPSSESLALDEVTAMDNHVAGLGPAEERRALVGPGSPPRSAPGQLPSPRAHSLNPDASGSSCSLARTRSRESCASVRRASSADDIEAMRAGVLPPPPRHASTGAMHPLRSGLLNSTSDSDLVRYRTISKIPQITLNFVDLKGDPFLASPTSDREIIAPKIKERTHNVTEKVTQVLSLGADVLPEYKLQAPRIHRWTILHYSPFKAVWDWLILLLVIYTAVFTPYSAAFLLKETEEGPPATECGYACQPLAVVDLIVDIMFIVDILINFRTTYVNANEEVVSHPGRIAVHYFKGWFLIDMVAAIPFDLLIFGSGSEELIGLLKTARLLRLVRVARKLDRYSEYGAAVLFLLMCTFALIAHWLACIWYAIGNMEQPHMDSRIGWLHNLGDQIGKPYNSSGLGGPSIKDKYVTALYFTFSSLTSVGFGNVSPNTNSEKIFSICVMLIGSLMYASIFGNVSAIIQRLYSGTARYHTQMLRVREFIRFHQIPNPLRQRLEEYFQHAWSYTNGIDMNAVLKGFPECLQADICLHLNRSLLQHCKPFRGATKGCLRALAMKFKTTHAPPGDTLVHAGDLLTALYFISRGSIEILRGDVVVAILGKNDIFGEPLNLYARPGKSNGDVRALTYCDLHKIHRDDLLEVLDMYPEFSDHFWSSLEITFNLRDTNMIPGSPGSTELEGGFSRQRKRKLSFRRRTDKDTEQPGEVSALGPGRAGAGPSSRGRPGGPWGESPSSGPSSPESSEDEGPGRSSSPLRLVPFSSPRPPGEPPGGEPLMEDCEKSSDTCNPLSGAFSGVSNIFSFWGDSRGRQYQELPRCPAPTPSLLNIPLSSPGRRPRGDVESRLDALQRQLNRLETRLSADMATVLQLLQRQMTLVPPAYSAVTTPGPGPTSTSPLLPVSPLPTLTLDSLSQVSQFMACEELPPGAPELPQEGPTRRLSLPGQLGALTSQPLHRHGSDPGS

[
  {
    "compound": "Cc1cccc(Nc2ccncc2S(=O)(=O)NC(=O)NC(C)C)c1 [TORSEMIDE]",
    "subjectOfTest": "Voltage-gated inwardly rectifying potassium channel KCNH2 (Homo sapiens)",
    "AC50": "> 30 µM"
  },
  {
    "compound": "CCCCC(=O)O[C@H]1CC[C@H]2[C@@H]3CCc4cc(O)ccc4[C@H]3CC[C@]12C [ESTRADIOL VALERATE]",
    "subjectOfTest": "Voltage-gated inwardly rectifying potassium channel KCNH2 (Homo sapiens)",
    "AC50": "> 30 µM"
  },
  {
    "compound": "CCCCCCCCCCCCCCCC(=O)OC[C@H](COP(=O)([O-])OCC[N+](C)(C)C)OC(=O)CCCCCCCCCCCCCCC [COLFOSCERIL PALMITATE]",
    "subjectOfTest": "Voltage-gated inwardly rectifying potassium channel KCNH2 (Homo sapiens)",
    "AC50": "> 30 µM"
  },
  {
    "compound": "CC(=O)Oc1ccccc1C(=O)O",
    "subjectOfTest": "Voltage-gated inwardly rectifying potassium channel KCNH2 (Homo sapiens)",
    "AC50": "> 30 µM"
  },
  {
    "compound": "C=CCOc1ccc(CC(=O)O)cc1Cl",
    "subjectOfTest": "Voltage-gated inwardly rectifying potassium channel KCNH2 (Homo sapiens)",
    "AC50": "> 30 µM"
  },
  {
    "compound": "CC(C)(Oc1ccc(C(=O)c2ccc(Cl)cc2)cc1)C(=O)O",
    "subjectOfTest": "Voltage-gated inwardly rectifying potassium channel KCNH2 (Homo sapiens)",
    "AC50": "> 30 µM"
  },
  {
    "compound": "CC(C)(Oc1ccc(Cl)cc1)C(=O)OCCOC(=O)c1cccnc1 [ETOFIBRATE]",
    "subjectOfTest": "Voltage-gated inwardly rectifying potassium channel KCNH2 (Homo sapiens)",
    "AC50": "> 30 µM"
  },
  {
    "compound": "CCc1ccc(C(=O)C(C)CN2CCCCC2)cc1 (stereo not drawn)",
    "subjectOfTest": "Voltage-gated inwardly rectifying potassium channel KCNH2 (Homo sapiens)",
    "AC50": "1.57 µM"
  },
  {
    "compound": "CCNC(=O)CCC/C=C\\C[C@@H]1[C@@H](/C=C/[C@@H](O)CCc2ccccc2)[C@H](O)C[C@@H]1O",
    "subjectOfTest": "Voltage-gated inwardly rectifying potassium channel KCNH2 (Homo sapiens)",
    "AC50": "> 30 µM"
  },
  {
    "compound": "O=C1CN=C(c2ccccc2Cl)c2cc([N+](=O)[O-])ccc2N1",
    "subjectOfTest": "Voltage-gated inwardly rectifying potassium channel KCNH2 (Homo sapiens)",
    "AC50": "> 30 µM"
  },
  {
    "compound": "C=C(c1ccccc1OCc1cccc(Cl)c1)n1ccnc1",
    "subjectOfTest": "Voltage-gated inwardly rectifying potassium channel KCNH2 (Homo sapiens)",
    "AC50": "4.97 µM"
  },
  {
    "compound": "CCOc1ccc(Cc2nccc3cc(OCC)c(OCC)cc23)cc1OCC",
    "subjectOfTest": "Voltage-gated inwardly rectifying potassium channel KCNH2 (Homo sapiens)",
    "AC50": "13 µM"
  },
  {
    "compound": "CCC1(c2ccccc2)C(=O)NCNC1=O",
    "subjectOfTest": "Voltage-gated inwardly rectifying potassium channel KCNH2 (Homo sapiens)",
    "AC50": "> 30 µM"
  },
  {
    "compound": "CC1Cc2ccccc2N1NC(=O)c1ccc(Cl)c(S(N)(=O)=O)c1 (stereo not drawn) [INDAPAMIDE]",
    "subjectOfTest": "Voltage-gated inwardly rectifying potassium channel KCNH2 (Homo sapiens)",
    "AC50": "> 30 µM"
  },
  {
    "compound": "C[C@@H]1CN(c2c(F)c(N)c3c(=O)c(C(=O)O)cn(C4CC4)c3c2F)C[C@H](C)N1",
    "subjectOfTest": "Voltage-gated inwardly rectifying potassium channel KCNH2 (Homo sapiens)",
    "AC50": "6.8 µM"
  },
  {
    "compound": "N[C@@H](Cc1ccc(N(CCCl)CCCl)cc1)C(=O)O",
    "subjectOfTest": "Voltage-gated inwardly rectifying potassium channel KCNH2 (Homo sapiens)",
    "AC50": "4.8 µM"
  },
  {
    "compound": "CO[C@@]1(NC(=O)C(C(=O)O)c2ccc(O)cc2)C(=O)N2C(C(=O)O)=C(CSc3nnnn3C)CO[C@@H]21 (stereo partly drawn)",
    "subjectOfTest": "Voltage-gated inwardly rectifying potassium channel KCNH2 (Homo sapiens)",
    "AC50": "> 30 µM"
  },
  {
    "compound": "COc1ccc2c3c1O[C@H]1C(=O)CC[C@H]4[C@@H](C2)N(C)CC[C@]314 [HYDROCODONE]",
    "subjectOfTest": "Voltage-gated inwardly rectifying potassium channel KCNH2 (Homo sapiens)",
    "AC50": "> 30 µM"
  }
]
